- SUBJECT OF TEST: ΔF508-CFTR (Homo sapiens, UniProt P13569, DEL508-508)
- Construct: expressed in transfected cells; host or cells: Fischer rat thyroid (FRT) epithelial cells, stably transfected
- Sequence (P13569 with tags, fused parts or gaps DEL508-508): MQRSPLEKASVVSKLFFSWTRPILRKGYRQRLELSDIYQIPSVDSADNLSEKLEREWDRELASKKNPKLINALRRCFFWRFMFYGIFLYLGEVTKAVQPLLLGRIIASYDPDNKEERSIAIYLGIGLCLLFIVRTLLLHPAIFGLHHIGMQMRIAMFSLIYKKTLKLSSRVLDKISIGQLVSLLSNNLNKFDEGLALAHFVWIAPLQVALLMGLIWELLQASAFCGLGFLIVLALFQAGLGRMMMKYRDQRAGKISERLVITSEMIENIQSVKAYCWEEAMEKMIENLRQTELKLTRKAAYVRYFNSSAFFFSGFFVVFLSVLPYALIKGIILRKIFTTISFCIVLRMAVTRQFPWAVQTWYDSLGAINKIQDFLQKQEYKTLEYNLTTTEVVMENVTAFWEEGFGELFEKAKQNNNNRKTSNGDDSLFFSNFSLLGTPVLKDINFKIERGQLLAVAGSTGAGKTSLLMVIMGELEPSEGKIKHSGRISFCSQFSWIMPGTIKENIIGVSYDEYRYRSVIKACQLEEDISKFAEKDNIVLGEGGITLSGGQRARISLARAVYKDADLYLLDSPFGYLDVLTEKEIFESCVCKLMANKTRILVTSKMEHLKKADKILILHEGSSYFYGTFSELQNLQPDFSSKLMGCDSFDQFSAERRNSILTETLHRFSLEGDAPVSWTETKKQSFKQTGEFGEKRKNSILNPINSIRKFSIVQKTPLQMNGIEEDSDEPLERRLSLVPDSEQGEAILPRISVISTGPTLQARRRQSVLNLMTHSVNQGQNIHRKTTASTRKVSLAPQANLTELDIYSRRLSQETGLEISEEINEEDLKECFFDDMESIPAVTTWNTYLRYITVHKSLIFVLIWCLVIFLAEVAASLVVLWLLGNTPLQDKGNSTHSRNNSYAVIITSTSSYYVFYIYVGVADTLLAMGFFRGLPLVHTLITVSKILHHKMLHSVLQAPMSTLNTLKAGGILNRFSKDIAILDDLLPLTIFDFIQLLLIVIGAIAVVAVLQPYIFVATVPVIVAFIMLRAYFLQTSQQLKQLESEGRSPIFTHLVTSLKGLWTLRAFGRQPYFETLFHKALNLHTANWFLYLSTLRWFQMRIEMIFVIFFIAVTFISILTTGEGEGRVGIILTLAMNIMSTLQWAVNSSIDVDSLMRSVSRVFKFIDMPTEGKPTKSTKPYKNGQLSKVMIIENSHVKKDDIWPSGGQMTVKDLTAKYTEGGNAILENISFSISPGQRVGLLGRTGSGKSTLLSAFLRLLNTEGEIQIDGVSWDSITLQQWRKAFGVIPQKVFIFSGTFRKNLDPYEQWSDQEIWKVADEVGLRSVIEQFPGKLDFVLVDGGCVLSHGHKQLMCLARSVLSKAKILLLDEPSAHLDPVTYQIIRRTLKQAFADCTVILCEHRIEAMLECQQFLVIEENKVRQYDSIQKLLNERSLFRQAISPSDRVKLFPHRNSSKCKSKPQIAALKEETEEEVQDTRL
- ASSAY NAME: Corrector assay, YFP fluorescence plate reader iodide influx in ΔF508-CFTR expressing FRT cells
- Type: cell-based
- SETTINGS: Table VIII; FRT cells, 18-24 h with compound at 37° C., forskolin 20 μM + genistein 50 μM, I− influx
Each entry below carries its recorded Corrector Vmax.

{"columns": ["COMPOUND", "SUBJECT OF TEST", "Corrector Vmax (µM/s)"],
 "data": [
  ["COc1cccc(C(=O)NCCCNc2nc3cc(C)cc(C)c3cc2C#N)c1 [drawing 159]", "ΔF508-CFTR (Homo sapiens, UniProt P13569, DEL508-508)", 134],
  ["COc1ccccc1C(=O)NCCNc1nc2cc(C)cc(C)c2cc1C#N [drawing 147]", "ΔF508-CFTR (Homo sapiens, UniProt P13569, DEL508-508)", 114],
  ["Cc1cc(C)c2cc(C#N)c(NCCNC(=O)c3ccncc3)nc2c1 [drawing 151]", "ΔF508-CFTR (Homo sapiens, UniProt P13569, DEL508-508)", 172],
  ["COc1ccc(S(=O)(=O)N2CCN(c3nc4ccc(C)cc4cc3C#N)CC2)cc1 [drawing 140]", "ΔF508-CFTR (Homo sapiens, UniProt P13569, DEL508-508)", 102],
  ["COc1ccc(C(=O)NCCNc2nc3cc(C)cc(C)c3cc2C#N)cc1 [drawing 148]", "ΔF508-CFTR (Homo sapiens, UniProt P13569, DEL508-508)", 172],
  ["Cc1cc(C)c2cc(C#N)c(NCCNC(=O)c3cccnc3)nc2c1 [drawing 150]", "ΔF508-CFTR (Homo sapiens, UniProt P13569, DEL508-508)", 223],
  ["COc1cccc(C(=O)NCCNc2nc3cc(C)cc(C)c3cc2C#N)c1 [drawing 146]", "ΔF508-CFTR (Homo sapiens, UniProt P13569, DEL508-508)", 300],
  ["COc1ccc2nc(N3CCN(C(=O)c4ccccc4F)CC3)c(C#N)cc2c1", "ΔF508-CFTR (Homo sapiens, UniProt P13569, DEL508-508)", 140]
]}
